Biological target: Sodium/potassium-transporting ATPase
Test: In vitro inhibitory concentration against dog kidney Na+/K+ ATPase
observable: IC50

Sample answers from the record:
CCCO/N=C/C=C/[C@H]1CC[C@]2(O)[C@@H]3CC[C@@H]4C[C@@H](O)CC[C@]4(C)[C@H]3CC[C@]12C ... 10 µM
C[C@]12CC[C@H](O)C[C@H]1CC[C@@H]1[C@@H]2CC[C@]2(C)[C@@H](/C=N/OCCN)CC[C@]12O ... 0.16 µM

// moving on: another record for IC50
Ask | Tell me reported IC50 for "C[C@]12CC[C@H](O)C[C@H]1CC[C@@H]1[C@@H]2CC[C@]2(C)[C@@H](/C=C/C=N\OCC(=O)O)CC[C@]12O" , tested with Sodium/potassium-transporting ATPase.
Reply | > 100 µM

----------
Assay: Compound at 100 uM was tested in vitro for the inhibition of dog kidney Na+/K+ ATPase
Details: Canis lupus familiaris, target entry is the homologue from another species
observable: inhibition
Quick note: unit goes after the number.

Ask | # lookup: inhibition of "CCCO/N=C/C(C)=C/[C@H]1CC[C@]2(O)[C@@H]3CC[C@@H]4C[C@@H](O)CC[C@]4(C)[C@H]3CC[C@]12C"
Reply | 40%

Ask | # lookup: inhibition of "C[C@]12CC[C@H](O)C[C@H]1CC[C@@H]1[C@@H]2CC[C@]2(C)[C@@H](/C=N/OCC(=O)O)CC[C@]12O"
Reply | 0%

Ask | # lookup: inhibition of "C[C@]12CC[C@H](O)C[C@H]1CC[C@@H]1[C@@H]2CC[C@]2(C)[C@@H](/C=C/C=N\OCC(=O)O)CC[C@]12O"
Reply | 40%

Ask | # lookup: inhibition of "CN(C)CCON(C)C[C@H]1CC[C@]2(O)[C@@H]3CC[C@@H]4C[C@@H](O)CC[C@]4(C)[C@H]3CC[C@]12C"
Reply | 20%

Ask | # lookup: inhibition of "CONCCC[C@H]1CC[C@]2(O)[C@@H]3CC[C@@H]4C[C@@H](O)CC[C@]4(C)[C@H]3CC[C@]12C"
Reply | 40%

----------
Test: Percent increase in force of contraction in vitro determined using electrically driven guinea pig left atrium.
Assay type: functional
Conditions: Cavia porcellus, Cardiac atrium
observable: Emax (%)
Write the answer as a number in %, unit excluded.

Sample answers from the record:
C[C@]12CC[C@H](O)C[C@H]1CC[C@@H]1[C@@H]2CC[C@]2(C)[C@@H](CNOCCCN)CC[C@]12O ... 237
CN(C)CCO/N=C/C=C/C=C/[C@H]1CC[C@]2(O)[C@@H]3CC[C@@H]4C[C@@H](O)CC[C@]4(C)[C@H]3CC[C@]12C.O=C(O)C(=O)O ... 145
C[C@]12CC[C@H](O)C[C@H]1CC[C@@H]1[C@@H]2CC[C@]2(C)[C@@H](/C=C/C=N/OCCN)CC[C@]12O ... 155
CN(C)CCO/N=C/[C@H]1CC[C@]2(O)[C@@H]3CC[C@@H]4C[C@@H](O)CC[C@]4(C)[C@H]3CC[C@]12C ... 39
C[C@]12CC[C@H](O)C[C@H]1CC[C@@H]1[C@@H]2CC[C@]2(C)[C@@H](/C=C/C=N/OCCO)CC[C@]12O ... 179
C[C@]12CC[C@H](O)C[C@H]1CC[C@@H]1[C@@H]2CC[C@]2(C)[C@@H](/C=C/C=C/CCN)CC[C@]12O ... 98

Ask | # lookup: Emax of "C[C@]12CC[C@H](O)C[C@H]1CC[C@@H]1[C@@H]2CC[C@]2(C)[C@@H](CCCCCCCN)CC[C@]12O"
Reply | 43

Ask | # lookup: Emax of "C[C@]12CC[C@H](O)C[C@H]1CC[C@@H]1[C@@H]2CC[C@]2(C)[C@@H](/C=N/OCCCN)CC[C@]12O.O=C(O)C(=O)O"
Reply | 126

Ask | # lookup: Emax of "C[C@]12CC[C@H](O)C[C@H]1CC[C@@H]1[C@@H]2CC[C@]2(C)[C@@H](CNOCCN)CC[C@]12O.Cl.Cl"
Reply | 135

Ask | # lookup: Emax of "C[C@]12CC[C@H](O)C[C@H]1CC[C@@H]1[C@@H]2CC[C@]2(C)[C@@H](CCCNOCCN)CC[C@]12O"
Reply | 71

Ask | # lookup: Emax of "C[C@]12CC[C@H](O)C[C@H]1CC[C@@H]1[C@@H]2CC[C@]2(C)[C@@H](C=O)CC[C@]12O"
Reply | 79

Ask | # lookup: Emax of "CC(/C=N/OCCCCN)=C\[C@H]1CC[C@]2(O)[C@@H]3CC[C@@H]4C[C@@H](O)CC[C@]4(C)[C@H]3CC[C@]12C"
Reply | 106

Ask | # lookup: Emax of "CN(C)CCO/N=C/C=C/[C@H]1CC[C@]2(O)[C@@H]3CC[C@@H]4C[C@@H](O)CC[C@]4(C)[C@H]3CC[C@]12C.O=C(O)C(=O)O"
Reply | 191

Ask | # lookup: Emax of "C[C@]12CC[C@H](O)C[C@H]1CC[C@@H]1[C@@H]2CC[C@]2(C)[C@@H](C3=CC(=O)OC3)CC[C@]12O"
Reply | 200

Ask | # lookup: Emax of "C[C@]12CC[C@H](O)C[C@H]1CC[C@@H]1[C@@H]2CC[C@]2(C)/C(=C/C=N\OCCN)CC[C@]12O"
Reply | 136

Ask | # lookup: Emax of "C[C@]12CC[C@H](O)C[C@H]1CC[C@@H]1[C@@H]2CC[C@]2(C)[C@@H](/C=N/OCCCCN)CC[C@]12O.O=C(O)C(=O)O"
Reply | 92

Ask | # lookup: Emax of "CC(/C=N/OCCN(C)C)=C\[C@H]1CC[C@]2(O)[C@@H]3CC[C@@H]4C[C@@H](O)CC[C@]4(C)[C@H]3CC[C@]12C.O=C(O)/C=C/C(=O)O"
Reply | 146

Ask | # lookup: Emax of "CN(C)CCO/N=C/C[C@H]1CC[C@]2(O)[C@@H]3CC[C@@H]4C[C@@H](O)CC[C@]4(C)[C@H]3CC[C@]12C"
Reply | 73

Ask | # lookup: Emax of "CC(/C=N/OCCN)=C\[C@H]1CC[C@]2(O)[C@@H]3CC[C@@H]4C[C@@H](O)CC[C@]4(C)[C@H]3CC[C@]12C.O=C(O)/C=C/C(=O)O"
Reply | 115

Ask | # lookup: Emax of "C[C@]12CC[C@H](O)C[C@H]1CC[C@@H]1[C@@H]2CC[C@]2(C)[C@@H](CC/C=N\OCCN)CC[C@]12O"
Reply | 70

Ask | # lookup: Emax of "C[C@H]1O[C@@H](O[C@H]2[C@@H](O)C[C@H](O[C@H]3[C@@H](O)C[C@H](O[C@H]4CC[C@@]5(C)[C@H](CC[C@@H]6[C@@H]5C[C@@H](O)[C@]5(C)[C@@H](C7=CC(=O)OC7)CC[C@]65O)C4)O[C@@H]3C)O[C@@H]2C)C[C@H](O)[C@@H]1O"
Reply | 184
